Reference source: patent US20170189511A1

# target.desc: HLA-A*24 (peptide-receptive MHC class I monomer of the UV-ligand exchange assay) (human)
# measurement.notes: UV-ligand exchange with anti-b2m ELISA
We begin with a simple list: items and their reported peptide exchange yield.
value.kind: peptide exchange yield

INSERT INTO measurements (binder, value_kind, readout_value) VALUES
  ('DYTTWTALL [Peptide SEQ ID NO: 165 (…)]', 'peptide exchange yield', '> 75%'),
  ('RYSTGLAGNLL [Peptide SEQ ID NO: 221 (…)]', 'peptide exchange yield', '50 to 75%'),
  ('RYAEEVGIF [Peptide SEQ ID NO: 199 (…)]', 'peptide exchange yield', '50 to 75%');
